- Test system: MOLT-4
- runDescription: NCI tumour cell line growth inhibition, 48 h
The source made the active and inactive calls. Rule as the data show it: active = GI50 up to about 1.1 µM and inactive = higher.
Valid outcomes are listed here; reply with one: active, inactive

Answered cases to consult:
[[record]]
compound = "C=CC1=C(C)c2cc3[nH]c(c4c5nc(cc6[nH]c(cc1n2)c(C=O)c6CC)C(C)=C5C(=O)[C@@H]4C(=O)OC)[C@@H](CCC(=O)O)[C@@H]3C"
categorylabel = "inactive"

[[record]]
compound = "CCN(CC)CCn1nc2c3c(c(NCCN)ccc31)Sc1cc(O)ccc1-2"
categorylabel = "active"

[[record]]
compound = "O=C1C=C2C(=CCOC2O)O1 (stereo unspecified)"
categorylabel = "active"

[[record]]
compound = "CCCCCCCCCc1c(O)c(O)c(CCCCCCCCC)c(CCCCCCCCC)c1CCCCCCCCC"
categorylabel = "inactive"

[[record]]
compound = "O=C1CC(=O)NC(NN2C(=O)CSC2c2ccccc2)=N1 (stereo unspecified)"
categorylabel = "inactive"

[[record]]
compound = "COc1nc(C(Cl)(Cl)Cl)c(Cl)c(OC)c1Cl"
categorylabel = "inactive"

[[record]]
compound = "O=Cc1cc(O)ccc1Br"
categorylabel = "inactive"

[[record]]
compound = "COC(=O)C1CC(C(=O)OC)c2nc3cc(C)ccc3nc21 (stereo unspecified)"
categorylabel = "inactive"

[[record]]
compound = "CCCCCCCCOC1C(O)C(O)C(O)C(O)C12CO2 (stereo unspecified)"
categorylabel = "inactive"

[[record]]
compound = "Fc1ccccc1CN1COc2c(cc(Cl)c3cccnc23)C1"
categorylabel = "active"


Data request: Name the outcome recorded for COc1cc2c(cc1OC)C(=O)N(NC1=NCCN1)C2=O in the assay.
Data returned: inactive

Data request: Name the outcome recorded for CC(C)(C)C(=O)N(C(=S)OCc1ccccn1)c1ccccc1 in the assay.
Data returned: inactive

Data request: Name the outcome recorded for Cn1nc(-c2ccccc2)c(C(=O)/C=C/c2ccccc2)c(N2CCCC2)c1=O in the assay.
Data returned: inactive

Data request: Name the outcome recorded for CC(C)(C)OC(=O)N[C@H]1CCN(C2CCCCC2)C1=O in the assay.
Data returned: inactive

---

- Test system: COLO 205
- runDescription: NCI tumour cell line growth inhibition, 48 h
Active and inactive are the calls of the source. No stated cut-off is given here; in the data, active = GI50 up to about 1.1 µM and inactive = higher.
Valid outcomes are listed here; reply with one: active, inactive

Answered cases to consult:
[[record]]
molecule = "COC1OC2COC1(OC)C1OC(C)(C)OC21 (centres undefined)"
measuredtarget = "COLO 205"
categorylabel = "inactive"

[[record]]
molecule = "O=c1[nH]cnc2c(COCCCO)c[nH]c12"
measuredtarget = "COLO 205"
categorylabel = "inactive"


Data request: Name the outcome recorded for Cc1ccccc1NC(=O)CSc1nnc(Cc2ccccc2)o1 in the assay.
Data returned: inactive

Data request: Name the outcome recorded for COc1cc(CNc2ccc3nc4n(c(=O)c3c2)CCCCC4)cc(OC)c1OC in the assay.
Data returned: inactive

Data request: Name the outcome recorded for Cc1c(Cl)cc(C(C)(C)C)c(O)c1Cc1c(C)c(Cl)cc(C(C)(C)C)c1O in the assay.
Data returned: active

Data request: Name the outcome recorded for Cc1cccc(-c2nc3ccc([N+](=O)[O-])cc3c(=O)o2)c1 in the assay.
Data returned: inactive

Data request: Name the outcome recorded for CCCCCCCCCCC(C)CCCCCCC(=O)OCC(COP(=O)([O-])OCC[N+](C)(C)C)OC(=O)CCCCCCC(C)CCCCCCCCCC (centres undefined) in the assay.
Data returned: inactive

Data request: Name the outcome recorded for COC(=O)C1=NC(=S)NC(c2ccccc2)C1c1nc2ccccc2o1 (centres undefined) in the assay.
Data returned: inactive

Data request: Name the outcome recorded for Cc1cc2ccccc2c[n+]1CC(O)C[n+]1cc2ccccc2cc1C in the assay.
Data returned: inactive

Data request: Name the outcome recorded for Cn1c(=O)c2nc3sc4c(n3c2n(C)c1=O)C(=O)c1ccccc1C4=O in the assay.
Data returned: inactive
